For each of the molecules below, state its IC50.
Tested on: cyclooxygenase
ASSAY_DETAILS: Standard assay system using polymorphonuclear leukocytes: inhibition of HHT or TXB2 production from [1-14C] arachidonic acid
Type: cell-based
EXPERIMENTAL_SETUP: polymorphonuclear leukocytes from guinea pig (4 x 10^7 cells), 5 minutes at 30°C, read-out: concentrations for 50% inhibitions on cyclooxygenase
Method: The experiments for screening using polymorphonuclear leukocytes was carried out as follows: The reaction mixture (0.1 ml) containing 5 umole of potassium phosphate at pH 7.4, 0.1 µmole of calsium chloride, polymorphonuclear leukocytes prepared from guinea pigs (4 x 10^7 cells) and test compound was preincubated for 5 minutes at 30°C. The reaction was started by the addition of [^1-14C] arachidonic acid ([…] dpm, 1.8 nmole), followed by the incubation at 30°C for 5 minutes. […]
Where a name gives a salt, the structure may show the parent alone.
Hey, just the number and the unit after it is fine.

# lookup: IC50 of Nc1cc(F)cc(C(=O)c2ccc(Cl)cc2)c1O 2 µM

# lookup: IC50 of Nc1cc(F)cc(C(O)c2ccc(Cl)cc2)c1O (stereo not shown) [hydrochloride] 7.2 µM

Look up IC50: Nc1cc(Cl)cc(C(=O)c2ccc(Cl)cc2)c1O 3 µM

So what's the measured IC50 for this one? CC(C)(C)c1cc(N)c(O)c(C(O)c2ccc(Cl)cc2)c1 (stereo not shown) [hydrochloride] 100 µM
